# targetOrSystem: Serine/threonine-protein kinase 17B (Homo sapiens)
# protocolSummary: Inhibition of DRAK2 (unknown origin) using 100 uM ATP by biochemical assay
recordedMetric: IC50
Don't forget the unit after the number, please.

IN: // IC50 lookup, key: `COc1ccc(-c2cnc3scc(NC(=O)C4CCCCC4)c3c2)cc1OC`
OUT: 990 nM

---

# targetOrSystem: Serine/threonine-protein kinase 17B (Homo sapiens, UniProt O94768)
# protocolSummary: Inhibition of DRAK2 (unknown origin) using 250 uM ATP by biochemical assay
recordedMetric: pIC50
Give bare numbers, as −log10 of the molar value.

IN: // pIC50 lookup, key: `COc1ccc(-c2cnc3scc(NC(=O)C4CCCCC4)c3c2)cc1OC`
OUT: 5.83

---

# targetOrSystem: Serine/threonine-protein kinase 17B (Homo sapiens, UniProt O94768)
# protocolSummary: Inhibition of DRAK2 (unknown origin) using 5 uM ATP by biochemical assay
recordedMetric: IC50 (nM)
One number for each entry, in nM.

IN: // IC50 lookup, key: `COc1ccc(-c2cnc3scc(NC(=O)C4CCCCC4)c3c2)cc1OC`
OUT: 510

---

For each of the compounds below, state its pKd.
# targetOrSystem: Serine/threonine-protein kinase 17B (Homo sapiens)
# protocolSummary: Binding affinity to DRAK2 (unknown origin) ATP site
Give bare numbers, as −log10 of the molar value.

Use the examples below as a reference point.
O=C(Nc1nsc2ncc(-c3ccc(O)cc3)cc12)C1CCCCC1; 5.49
COc1ccc(-c2cnc3scc(NC(=O)C4CCCCC4)c3n2)cc1OC; 7.57

I'm hoping you can list pKd for every compound here, please.
1. COc1ccc(-c2ccc3scc(NC(=O)C4CCCCC4)c3c2)cc1OC
2. COc1cc(-c2cnc3snc(NC(=O)C4CCCCC4)c3c2)ccc1O
3. O=C(Nc1nsc2ncc(-c3ccsc3)cc12)C1CCCCC1

OUT:
1. 6.29
2. 5.70
3. 5.80

I'm hoping you can list pKd for every compound here, please.
1. COc1ccc(-c2cnc3snc(NC(=O)C4CCCCC4)c3c2)cc1OC
2. COc1ccc(-c2cnc3snc(NC(=O)C4CCCC4)c3c2)cc1OC
3. COc1ccc(-c2cnc3ncnc(NC(=O)C4CCCCC4)c3n2)cc1OC
4. COc1ccc(-c2ccc3onc(NC(=O)C4CCCCC4)c3c2)cc1OC
5. COc1ccc(-c2cnc3snc(NC(=O)C4CCC4)c3c2)cc1OC

OUT:
[5.80, 5.66, 6.74, 6.02, 5.80]

IN: // pKd lookup, key: `COc1ccc(-c2cnc3snc(NC(=O)C4CCNCC4)c3c2)cc1OC`
OUT: 5.14

---

# targetOrSystem: Serine/threonine-protein kinase 17B (Homo sapiens, UniProt O94768)
# protocolSummary: Binding affinity to DRAK2 (unknown origin) ATP site
recordedMetric: log10(Kd) (log10 of the value in µM)
# log10 transformed; quantity=Kd; unit=µM

Use the examples below as a reference point.
COc1ccc(-c2ccc3snc(NC(=O)C4CCCCC4)c3c2)cc1OC; 0.43
COc1ccc(-c2cnc3[nH]cc(NC(=O)C4CCCCC4)c3c2)cc1OC; -1.48

I'm hoping you can list log10(Kd) for every compound here, please.
1. O=C(Nc1nsc2ncc(-c3cccs3)cc12)C1CCCCC1
2. COc1cc(-c2cnc3snc(NC(=O)C4CCCCC4)c3c2)ccc1N
3. COc1ccc(-c2cnc3snc(NC(=O)C4CCCCCC4)c3c2)cc1OC
4. Nc1cccc(-c2cnc3snc(NC(=O)C4CCCCC4)c3c2)c1
5. COc1ccc(-c2cnc3scc(NC(=O)C4CCCCC4)c3c2)cc1OC

OUT:
[0.28, -0.18, -0.28, 0.36, -2.05]

---

# targetOrSystem: Serine/threonine-protein kinase 17B (Homo sapiens)
# Sequence (O94768 whole entry): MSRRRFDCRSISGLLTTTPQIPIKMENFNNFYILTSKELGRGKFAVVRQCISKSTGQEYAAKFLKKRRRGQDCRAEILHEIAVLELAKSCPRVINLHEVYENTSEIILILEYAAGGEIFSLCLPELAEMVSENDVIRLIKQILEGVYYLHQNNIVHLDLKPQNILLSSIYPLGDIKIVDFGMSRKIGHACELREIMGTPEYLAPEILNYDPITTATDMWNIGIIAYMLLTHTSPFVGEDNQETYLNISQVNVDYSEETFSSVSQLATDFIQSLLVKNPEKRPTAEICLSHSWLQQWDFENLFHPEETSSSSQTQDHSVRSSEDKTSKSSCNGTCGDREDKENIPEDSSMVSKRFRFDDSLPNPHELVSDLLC
# protocolSummary: Inhibition of DRAK2 (unknown origin) using 500 uM ATP by biochemical assay
recordedMetric: pIC50
Give bare numbers, as −log10 of the molar value.

IN: // pIC50 lookup, key: `COc1ccc(-c2cnc3scc(NC(=O)C4CCCCC4)c3c2)cc1OC`
OUT: 5.65

---

# targetOrSystem: Serine/threonine-protein kinase 17B (Homo sapiens)
# protocolSummary: Inhibition of DRAK2 (unknown origin) using 25 uM ATP by biochemical assay
recordedMetric: pIC50
Numbers only, as −log10 of the molar value.

IN: // pIC50 lookup, key: `COc1ccc(-c2cnc3scc(NC(=O)C4CCCCC4)c3c2)cc1OC`
OUT: 6.19

Origin of measurements: ChEMBL document CHEMBL3352458
